Where do these numbers come from? They come from paper PMC6943434.

Test system: MCF 10A (normal mammary epithelial cell)
protocol text: MTT cell viability assay, MCF 10A
Format: cell-based
measurement setup: Homo sapiens, 48 h, normal cells, read-out: Antiproliferative Activity IC50 ± SEM, MCF 10A

>  <compound>
Cc1nc(C)c(C(=O)NCCCCCCNC(=O)c2nc(C)c(C)nc2C)nc1C [Compound 8c]

>  <IC50>
46.6 µM

$$$$
>  <compound>
Cc1nc(C)c(CN(CCN(Cc2nc(C)c(C)nc2C)Cc2nc(C)c(C)nc2C)Cc2nc(C)c(C)nc2C)nc1C [Compound 6a]

>  <IC50>
90.3 µM

$$$$
>  <compound>
O=C(NCCCCCCCCCCNC(=O)c1ccc2ncccc2c1)c1ccc2ncccc2c1 [Compound 18e]

>  <IC50>
> 20 µM

$$$$
>  <compound>
O=C(/C=C/c1ccccc1)OCCCCCCCCOC(=O)/C=C/c1ccccc1 [Compound 9g]

>  <IC50>
> 20 µM

$$$$
>  <compound>
Nc1ccc(C(=O)NCCCCCCCCCCNC(=O)c2ccc(N)cc2)cc1 [Compound 31e]

>  <IC50>
> 20 µM

$$$$
>  <compound>
Cc1nc(C)c(C)nc1C [TMP, 2,3,5,6-tetramethylpyrazine, reference compound]

>  <IC50>
> 100 µM

$$$$
>  <compound>
O=C(/C=C/c1ccccc1)NCCCCCCCCCCCCNC(=O)/C=C/c1ccccc1 [Compound 9f]

>  <IC50>
> 20 µM

$$$$
>  <compound>
O=C(NCCCCCCCCCCNC(=O)c1cnc2ccccc2c1)c1cnc2ccccc2c1 [Compound 17e]

>  <IC50>
> 20 µM

$$$$
>  <compound>
O=C(NCCCCCCCCCCNC(=O)c1ccco1)c1ccco1 [Compound 14e]

>  <IC50>
19.8 µM

$$$$
>  <compound>
O=C(NCCCCCCCCCCNC(=O)c1cc2ccccc2s1)c1cc2ccccc2s1 [Compound 22e]

>  <IC50>
> 20 µM

$$$$
>  <compound>
O=C(NCCCCCCCCCCNC(=O)c1cc2ccccc2o1)c1cc2ccccc2o1 [Compound 21e]

>  <IC50>
> 20 µM

$$$$
>  <compound>
Cc1nc(C)c(C(=O)NCCCCCCCCNC(=O)c2nc(C)c(C)nc2C)nc1C [Compound 8d]

>  <IC50>
2.69 µM

$$$$
>  <compound>
O=C(/C=C/c1ccccc1)OCCOCCOCCOCCOC(=O)/C=C/c1ccccc1 [Compound 9m]

>  <IC50>
> 20 µM

$$$$
>  <compound>
O=C(/C=C/c1ccccc1)OCCCCCCCCCCCCOC(=O)/C=C/c1ccccc1 [Compound 9i]

>  <IC50>
> 20 µM

$$$$
>  <compound>
O=C(/C=C/c1ccccc1)OCCCCCCCCCCOC(=O)/C=C/c1ccccc1 [Compound 9h]

>  <IC50>
> 20 µM

$$$$
>  <compound>
O=C(/C=C/c1ccc(Cl)cc1)NCCCCCCCCCCNC(=O)/C=C/c1ccc(Cl)cc1 [Compound 25e]

>  <IC50>
> 20 µM

$$$$
>  <compound>
O=C(NCCCCCCCCCCNC(=O)c1ccccn1)c1ccccn1 [Compound 15e, N,N′-(Decane-1,10-Diyl)Dipicolinamide]

>  <IC50>
54.6 µM

$$$$

###

Tested on: HeLa (cervical cancer cell line)
protocol text: MTT cell viability assay, HeLa
Assay type: cell-based
measurement setup: Homo sapiens, 48 h, read-out: Antiproliferative Activity IC50 ± SEM, HeLa
// IC50 lookup, one value per entry
measurement kind: IC50

>  <compound>
Nc1ccccc1C(=O)NCCCCCCCCCCNC(=O)c1ccccc1N [Compound 30e]

>  <test result>
> 20 µM

$$$$
>  <compound>
O=C(/C=C/c1ccccc1)OCCCCCCCCCCCCOC(=O)/C=C/c1ccccc1 [Compound 9i]

>  <test result>
> 20 µM

$$$$
>  <compound>
O=C(NCCCCCCCCCCNC(=O)c1ccc2ccccc2c1)c1ccc2ccccc2c1 [Compound 12e]

>  <test result>
> 100 µM

$$$$
>  <compound>
O=C(/C=C/c1ccc(Cl)cc1)NCCCCCCCCCCNC(=O)/C=C/c1ccc(Cl)cc1 [Compound 25e]

>  <test result>
> 20 µM

$$$$
>  <compound>
Cc1nc(C)c(CN(CCCCN(Cc2nc(C)c(C)nc2C)Cc2nc(C)c(C)nc2C)Cc2nc(C)c(C)nc2C)nc1C [Compound 6c]

>  <test result>
> 100 µM

$$$$
>  <compound>
O=C(/C=C/c1ccccc1)OCCCCCCCCOC(=O)/C=C/c1ccccc1 [Compound 9g]

>  <test result>
> 20 µM

$$$$
>  <compound>
COc1cc(C(=O)NCCCCCCCCCCNC(=O)c2cc(OC)c(OC)c(OC)c2)cc(OC)c1OC [Compound 34e]

>  <test result>
> 20 µM

$$$$
>  <compound>
Cc1nc(C)c(CN(CCN(Cc2nc(C)c(C)nc2C)Cc2nc(C)c(C)nc2C)Cc2nc(C)c(C)nc2C)nc1C [Compound 6a]

>  <test result>
> 100 µM

$$$$
>  <compound>
Cc1nc(C)c(C(=O)NCCCNC(=O)c2nc(C)c(C)nc2C)nc1C [Compound 8a]

>  <test result>
> 100 µM

$$$$
>  <compound>
Cc1nc(C)c(CN(CCCCCCCCCCCCN(Cc2nc(C)c(C)nc2C)Cc2nc(C)c(C)nc2C)Cc2nc(C)c(C)nc2C)nc1C [Compound 6g]

>  <test result>
7.89 µM

$$$$
>  <compound>
O=C(NCCCCCCCCCCNC(=O)c1cnc2ccccc2c1)c1cnc2ccccc2c1 [Compound 17e]

>  <test result>
> 20 µM

$$$$
>  <compound>
Nc1ccc(C(=O)NCCCCCCCCCCNC(=O)c2ccc(N)cc2)cc1 [Compound 31e]

>  <test result>
> 20 µM

$$$$
>  <compound>
O=C(/C=C/c1ccccc1)NCCOCCOCCOCCNC(=O)/C=C/c1ccccc1 [Compound 9k]

>  <test result>
> 20 µM

$$$$
>  <compound>
Cc1nc(C)c(C(=O)NCCCCCCCCNC(=O)c2nc(C)c(C)nc2C)nc1C [Compound 8d]

>  <test result>
3.31 µM

$$$$
>  <compound>
COc1cccc2c1C(=O)c1c(O)c3c(c(O)c1C2=O)C[C@@](O)(C(=O)CO)C[C@@H]3O[C@H]1C[C@H](N)[C@H](O)[C@H](C)O1 [DOX, doxorubicin, reference compound]

>  <test result>
11.4 µM

$$$$
>  <compound>
O=C(NCCCCCCCCCCNC(=O)c1cc2ccccc2o1)c1cc2ccccc2o1 [Compound 21e]

>  <test result>
> 20 µM

$$$$
>  <compound>
O=C(/C=C/c1ccccc1)NCCCCCCCCCCNC(=O)/C=C/c1ccccc1 [Compound 9e]

>  <test result>
> 100 µM

$$$$
>  <compound>
O=C(/C=C/c1ccccc1)OCCOCCOCCOC(=O)/C=C/c1ccccc1 [Compound 9l]

>  <test result>
> 20 µM

$$$$
>  <compound>
O=C(/C=C/c1ccccc1)NCCOCCOCCNC(=O)/C=C/c1ccccc1 [Compound 9j]

>  <test result>
> 20 µM

$$$$
>  <compound>
Cc1nc(C)c(CN(CCCCCCN(Cc2nc(C)c(C)nc2C)Cc2nc(C)c(C)nc2C)Cc2nc(C)c(C)nc2C)nc1C [Compound 6d]

>  <test result>
> 100 µM

$$$$
>  <compound>
Cn1cc(C(=O)NCCCCCCCCCCNC(=O)c2cn(C)c3ccccc23)c2ccccc21 [Compound 23e]

>  <test result>
> 20 µM

$$$$
>  <compound>
O=C(NCCCCCCCCCCNC(=O)c1ccc2cc[nH]c2c1)c1ccc2cc[nH]c2c1 [Compound 24e]

>  <test result>
> 20 µM

$$$$
>  <compound>
Cc1nc(C)c(C(=O)NCCCCCCNC(=O)c2nc(C)c(C)nc2C)nc1C [Compound 8c]

>  <test result>
> 100 µM

$$$$
